- Test system: Ehrlich ascites carcinoma
- assay: Preventive effect against the growth of Ehrlich ascites tumor (method A)
- Type: in vivo, mice
- experimental setup: Mus musculus, Ehrlich, ip, 168 h; dose 0.195 mg/kg/day i.p. x 5 days; read-out: Inhibition ratio (%)
Recorded inhibition in vivo at 0.195 mg/kg/day values for a group of compounds are listed next.
measure name: inhibition in vivo at 0.195 mg/kg/day (%)

> print(dat)
                                chem.smiles                     target  observed
1  COCCN(C(=O)N(CCCl)N=O)[C@@H]1[C@@H](O)[C@@H](OC)O[C@H](CO)[C@H]1O  Ehrlich ascites carcinoma       100
2  C=CCN(C(=O)N(CCCl)N=O)[C@@H]1[C@@H](O)[C@@H](OC)O[C@H](CO)[C@H]1O  Ehrlich ascites carcinoma       100
3  CO[C@H]1O[C@H](CO)[C@@H](O)[C@H](N(CC(C)C)C(=O)N(CCCl)N=O)[C@H]1O  Ehrlich ascites carcinoma       100
4  CO[C@H]1O[C@H](CO)[C@@H](O)[C@H](N(C)C(=O)N(CCCl)N=O)[C@H]1O  Ehrlich ascites carcinoma      81.1
